// note: IC50 values for Vascular endothelial growth factor receptor 2 (Homo sapiens, UniProt P35968) were reported in different studies
READOUT LABEL: IC50

> print(dat)
                                    molecule            result
 1  COc1cc(-c2ccc(N3C[C@@H]4[C@H](C3)[C@H]4NC(=O)c3ncccc3Cl)nc2)c2c(C#N)cnn2c1          > 100 nM
 2  CCCS(=O)(=O)Nc1ccc(F)c(C(=O)c2c[nH]c3ncc(-c4ccc(OCCCN5CCCC5)nc4)cc23)c1F        ≤ 10000 nM
 3  C[C@H](Nc1cncc(-c2ccc(NS(C)(=O)=O)cc2)n1)c1cccc(NC(=O)c2cccc(C(F)(F)F)c2)c1          < 100 nM
 4  Cc1[nH]c2c(c1C(=O)NCC(O)CN1CCCCC1)CCC/C2=C1/C(=O)Nc2ccc(F)cc21 (stereo not shown)             13 nM
 5  Cc1cc(NC(=O)Nc2ccc(F)c(C(C)(F)F)c2)ccc1Oc1cc(NC(=O)C2CC2)ncn1            7.4 nM
 6  C=CC(=O)Nc1cc2c(Nc3ccc(Br)c(Cl)c3F)ncnc2cc1OCCNC(=O)NCC             38 nM
 7  COc1cc(OC)cc(N(CC2CC2)c2ccc3ncc(-c4ccnc(N5CCOCC5)c4)nc3c2)c1        > 10000 nM
 8        Cc1cc(C)cc(Nc2nc3c(NCCN)nccn3n2)c1  3000 to 50000 nM
 9  O=C(c1c(F)ccc(NS(=O)(=O)c2ccc(F)cc2)c1F)c1c[nH]c2nccc(Cl)c12        ≤ 10000 nM
10  CC(C)(O)c1ccc(-c2cc3nccc(-c4ccc(C(C)(C)O)cc4)c3o2)cc1    300 to 3000 nM
11  O=S(=O)(NCc1c[nH]c2ncccc12)c1ccc(N2CCOCC2)nc1        ≤ 10000 nM
12  COc1cc(Nc2nc3c(-c4ccccc4)nccn3n2)cc(OC)c1          < 300 nM
13  O=C(c1cc(O)ccc1F)c1c[nH]c2ncc(-c3ccccc3)cc12        ≤ 10000 nM
14  O=C(Nc1cc(N2CCS(=O)(=O)CC2)cc(C(F)(F)F)c1)Nc1ccc(Oc2ccnc(NC(=O)C3CC3)c2)c(F)c1           11.5 nM
15  Cc1cc(C)cc(Nc2nc3c(NC4CCCCC4N)nccn3n2)c1 (stereo not shown)  3000 to 50000 nM
16  CCCS(=O)(=O)Nc1ccc(F)c(C(=O)c2c[nH]c3ncc(-c4c(C)noc4C)cc23)c1F        ≤ 10000 nM

---

// note: pIC50 values for Vascular endothelial growth factor receptor 2 (Homo sapiens) were reported in different studies
pIC50: −log10 of the molar value.
READOUT LABEL: pIC50

> print(dat)
                                    molecule                             target.system        result
 1  C=CC(=O)Nc1cc2c(Nc3ccc(Br)cc3F)ncnc2cc1OC(C)CNC(C)=O (centres unmarked)  Vascular endothelial growth factor receptor 2 (Homo sapiens)          7.11
 2  NC(=O)C(=C1Nc2ccccc2S1)c1ncc(C(=O)O)c(C(F)(F)F)n1 (single isomer, unassigned)  Vascular endothelial growth factor receptor 2 (Homo sapiens)          7.70
 3  OC(c1ccc(NCc2ccc(Cl)cc2)nc1)c1c[nH]c2ncccc12 (centres unmarked)  Vascular endothelial growth factor receptor 2 (Homo sapiens)        ≥ 5.00
 4  O=C(Nc1ccc(C(F)(F)F)cc1)Nc1ncnc2nn3ccccc3c12  Vascular endothelial growth factor receptor 2 (Homo sapiens)  5.00 to 6.00
 5  C=CC(=O)Nc1cc2c(Nc3ccc(Br)cc3F)ncnc2cc1OCC1CCN(C(=O)C=C)CC1  Vascular endothelial growth factor receptor 2 (Homo sapiens)          6.69
 6  C=CC(=O)Nc1cc2c(Nc3ccc(Br)cc3F)ncnc2cc1OCCNC(=O)CCO  Vascular endothelial growth factor receptor 2 (Homo sapiens)          6.67
 7  O=C(Nc1cc2ccccc2oc1=O)c1ccccc1NCc1ccncc1  Vascular endothelial growth factor receptor 2 (Homo sapiens)          8.52
 8  COc1cc(OC)cc(N(CC2CC2)c2ccc3ncc(-c4ccnc(N5CCN(C)CC5)c4)nc3c2)c1  Vascular endothelial growth factor receptor 2 (Homo sapiens)          5.86
 9  O=C(c1cccc(NS(=O)(=O)N2CCCCC2)c1)c1c[nH]c2ncc(Cl)cc12  Vascular endothelial growth factor receptor 2 (Homo sapiens)        ≥ 5.00
10  COc1ccc(NC(=O)Nc2ccc(C3CN=C4c5ccccc5NC(=O)N4C3)cc2)cc1 (centres unmarked)  Vascular endothelial growth factor receptor 2 (Homo sapiens)        < 5.00
11  NC(=O)c1coc(-c2cc(Oc3cccc(NC(=O)Nc4ccc(Cl)c(C(F)(F)F)c4)c3)ncn2)n1  Vascular endothelial growth factor receptor 2 (Homo sapiens)        ≥ 5.00
12   OCc1cccc(-c2ccnc3[nH]cc(Sc4cccs4)c23)c1  Vascular endothelial growth factor receptor 2 (Homo sapiens)        ≥ 5.00
13  c1cnc(OC2CCCC2)c(CNc2ncc(Cc3c[nH]c4ncncc34)cn2)c1  Vascular endothelial growth factor receptor 2 (Homo sapiens)        ≥ 5.00
14  Cn1cc(-c2cnc3[nH]cc(Cc4cc(Cl)c(OCc5nc6ccccc6[nH]5)cc4F)c3c2)cn1  Vascular endothelial growth factor receptor 2 (Homo sapiens)        ≥ 5.00
15  CCCS(=O)(=O)Nc1ccc(F)c(C(=O)c2c[nH]c3ncc(-c4ccc(F)nc4)cc23)c1F  Vascular endothelial growth factor receptor 2 (Homo sapiens)        ≥ 5.00
16  O=C(Nc1ccc(F)cc1)Nc1cc(F)c(F)c(C(=O)c2ccc3ncc(N4CCNCC4)nc3c2)c1  Vascular endothelial growth factor receptor 2 (Homo sapiens)        < 7.00
17  COc1ccc(NC(=O)Nc2ccc(Oc3ccnc4cc(OCCCc5ccncc5)c(C#N)cc34)cc2)cc1  Vascular endothelial growth factor receptor 2 (Homo sapiens)          7.29
18  COc1cc(OC)cc(N(CC2CC2)c2ccc3ncc(-n4nccc4C)nc3c2)c1  Vascular endothelial growth factor receptor 2 (Homo sapiens)        < 6.00
19  N#Cc1cnc2[nH]cc(C(=O)c3c(F)ccc(NS(=O)(=O)CCC(F)(F)F)c3F)c2c1  Vascular endothelial growth factor receptor 2 (Homo sapiens)        ≥ 5.00
20  COCCOc1cc2nccc(Oc3ccc(NC(=O)NC4CC4)c(Cl)c3)c2cc1C(N)=O  Vascular endothelial growth factor receptor 2 (Homo sapiens)          8.59
21  CCOc1cccc(Cc2c[nH]c3ncc(-c4ccsc4)cc23)c1  Vascular endothelial growth factor receptor 2 (Homo sapiens)        ≥ 5.00
22   N#Cc1cccc(NC(=O)Nc2ncnc3nn4ccccc4c23)c1  Vascular endothelial growth factor receptor 2 (Homo sapiens)  6.00 to 7.00
23  Cc1cnc2[nH]cc(C(=O)c3c(F)ccc(NS(=O)(=O)c4cccc(F)c4)c3F)c2c1  Vascular endothelial growth factor receptor 2 (Homo sapiens)        ≥ 5.00
24   O=[N+]([O-])c1cccc(-c2ccnc3[nH]ccc23)c1  Vascular endothelial growth factor receptor 2 (Homo sapiens)        ≥ 5.00
25  COc1ccc(Nc2cc(-c3cc(-c4ccc(O)cc4)ccc3O)nc(N)n2)cc1  Vascular endothelial growth factor receptor 2 (Homo sapiens)        > 6.00
26  Cc1[nH]c(/C=C2\C(=O)Nc3ccc(F)cc32)c(C)c1NC(=O)C1CCCNC1 (centres unmarked)  Vascular endothelial growth factor receptor 2 (Homo sapiens)          6.85
27  CC(C)CC(=O)NC[C@@H]1[C@H]2CN(c3ccc(-c4cc(-c5cnn(C)c5)cn5ncc(C#N)c45)cn3)C[C@@H]12  Vascular endothelial growth factor receptor 2 (Homo sapiens)  7.30 to 8.00
28  CCOc1ccn(-c2ccc(C)cc2)c(=O)c1C(=O)Nc1ccc(Oc2ccnc3cc(OC)c4c(c23)OCCO4)c(F)c1  Vascular endothelial growth factor receptor 2 (Homo sapiens)  6.30 to 7.30
29  C=CC(=O)Nc1cc2c(Nc3ccc(Br)cc3F)ncnc2cc1OCC1CCN(C(C)=O)CC1  Vascular endothelial growth factor receptor 2 (Homo sapiens)          6.88
30  Cn1ccc(S(=O)(=O)Nc2ccc(F)c(C(=O)c3c[nH]c4ncc(Cl)cc34)c2F)n1  Vascular endothelial growth factor receptor 2 (Homo sapiens)        ≥ 5.00
31  O=C(Nc1ccc(Oc2cc(-c3ncno3)ncn2)cc1)Nc1ccc(Cl)c(C(F)(F)F)c1  Vascular endothelial growth factor receptor 2 (Homo sapiens)        ≥ 5.00
32  COc1cc(-c2cc3nccc(-c4cccc(C(=O)NCc5n[nH]c(=O)[nH]5)c4)c3o2)cc(OC)c1OC  Vascular endothelial growth factor receptor 2 (Homo sapiens)  5.52 to 6.52
